Tested on: MOLT-4
protocol.summary: Antitumor activity against human MOLT4 cells assessed as cell growth inhibition at 10 uM incubated for 48 hrs by sulforhodamine B assay
Type: functional
run.parameters: read-out: GI
Provide the recorded inhibition of growth at 10 µM for the entries that follow.
Give bare numbers, in %.

Below are worked cases with known answers.
Notebook: Cc1ccc(-c2cn3nc(N)c(/N=N/c4ccc(S(N)(=O)=O)cc4)c3[nH]2)cc1 , inhibition of growth at 10 µM read as 55

Notebook: N#Cc1c(-c2ccc(Br)cc2)nc2c(/N=N/c3ccc(S(N)(=O)=O)cc3)c(N)nn2c1N , inhibition of growth at 10 µM read as 98

Notebook: Cc1ccc(-c2nc3c(/N=N/c4ccc(S(N)(=O)=O)cc4)c(N)nn3c(N)c2C#N)cc1 , inhibition of growth at 10 µM read as 96

Notebook: Nc1nn2cc(-c3ccc(Br)cc3)[nH]c2c1/N=N/c1ccc(S(N)(=O)=O)cc1 , inhibition of growth at 10 µM read as 42

Notebook: Nc1nn2cc(-c3ccccc3)[nH]c2c1/N=N/c1ccc(S(N)(=O)=O)cc1 , inhibition of growth at 10 µM read as 86

Hello, I would appreciate it if you could give inhibition of growth at 10 µM for each entry below.
1. N#Cc1c(-c2ccc(F)cc2)nc2c(/N=N/c3ccc(S(N)(=O)=O)cc3)c(N)nn2c1N
2. N#Cc1c(-c2ccc(Cl)cc2)nc2c(/N=N/c3ccc(S(N)(=O)=O)cc3)c(N)nn2c1N

**A:**
62
82

* * *

measured.on: UniProt P00918
protocol.summary: Inhibition of recombinant human carbonic anhydrase 2 preincubated with enzyme for 15 mins by phenol red dye based stopped flow CO2 hydrase assay
pKi: −log10 of the molar value.
Decide using pKi: a value greater than or equal to 7 is yes, a smaller one is no.

Illustrative cases are given below, each with its answer.
**Q:** Is pKi for Nc1nn2c(-c3ccc(Cl)cc3)ccnc2c1/N=N/c1ccc(S(N)(=O)=O)cc1 at or above 7?
**A:** yes

**Q:** Is pKi for Nc1nn2cc(-c3ccc(F)cc3)[nH]c2c1/N=N/c1ccc(S(N)(=O)=O)cc1 at or above 7?
**A:** yes

**Q:** Is pKi for COc1ccc(-c2ccnc3c(/N=N/c4ccc(S(N)(=O)=O)cc4)c(N)nn23)cc1 at or above 7?
**A:** yes

**Q:** Is pKi for N#Cc1c(-c2ccccc2)nc2c(/N=N/c3ccc(S(N)(=O)=O)cc3)c(N)nn2c1N at or above 7?
**A:** no

**Q:** Is pKi for Nc1nn2cc(-c3ccc(Cl)cc3)[nH]c2c1/N=N/c1ccc(S(N)(=O)=O)cc1 at or above 7?
**A:** yes

**Q:** Is pKi for Cc1ccc(-c2nc3c(/N=N/c4ccc(S(N)(=O)=O)cc4)c(N)nn3c(N)c2C#N)cc1 at or above 7?
**A:** no

---
**Q:** Is pKi for N#Cc1c(-c2ccc(Br)cc2)nc2c(/N=N/c3ccc(S(N)(=O)=O)cc3)c(N)nn2c1N at or above 7?
**A:** no

**Q:** Is pKi for N#Cc1c(-c2ccc(F)cc2)nc2c(/N=N/c3ccc(S(N)(=O)=O)cc3)c(N)nn2c1N at or above 7?
**A:** no

**Q:** Is pKi for Nc1n[nH]c(N)c1/N=N/c1ccc(S(N)(=O)=O)cc1 at or above 7?
**A:** yes

**Q:** Is pKi for Nc1nn2cc(-c3ccc(Br)cc3)[nH]c2c1/N=N/c1ccc(S(N)(=O)=O)cc1 at or above 7?
**A:** yes

**Q:** Is pKi for N#Cc1c(-c2ccc(Cl)cc2)nc2c(/N=N/c3ccc(S(N)(=O)=O)cc3)c(N)nn2c1N at or above 7?
**A:** no

**Q:** Is pKi for Nc1nn2c(-c3cccs3)ccnc2c1/N=N/c1ccc(S(N)(=O)=O)cc1 at or above 7?
**A:** yes

**Q:** Is pKi for Cc1ccc(-c2ccnc3c(/N=N/c4ccc(S(N)(=O)=O)cc4)c(N)nn23)cc1 at or above 7?
**A:** yes

**Q:** Is pKi for Nc1nn2c(-c3ccc(F)cc3)ccnc2c1/N=N/c1ccc(S(N)(=O)=O)cc1 at or above 7?
**A:** yes

**Q:** Is pKi for Nc1nn2c(-c3ccc([N+](=O)[O-])cc3)ccnc2c1/N=N/c1ccc(S(N)(=O)=O)cc1 at or above 7?
**A:** yes

**Q:** Is pKi for Nc1nn2c(-c3ccccc3)ccnc2c1/N=N/c1ccc(S(N)(=O)=O)cc1 at or above 7?
**A:** yes

**Q:** Is pKi for Nc1nn2c(-c3ccc(Br)cc3)ccnc2c1/N=N/c1ccc(S(N)(=O)=O)cc1 at or above 7?
**A:** yes

* * *

Tested on: CAKI-1
protocol.summary: Antitumor activity against human CAKI-1 cells assessed as cell growth inhibition at 10 uM incubated for 48 hrs by sulforhodamine B assay
Type: functional
run.parameters: read-out: GI
Decide using inhibition of growth at 10 µM: a value greater than or equal to 60% is class 1, a smaller one is class 0.

**Q:** Is inhibition of growth at 10 µM for N#Cc1c(-c2ccc(Br)cc2)nc2c(/N=N/c3ccc(S(N)(=O)=O)cc3)c(N)nn2c1N at or above 60%?
**A:** class 0

**Q:** Is inhibition of growth at 10 µM for Cc1ccc(-c2cn3nc(N)c(/N=N/c4ccc(S(N)(=O)=O)cc4)c3[nH]2)cc1 at or above 60%?
**A:** class 1

**Q:** Is inhibition of growth at 10 µM for Nc1nn2cc(-c3ccc(F)cc3)[nH]c2c1/N=N/c1ccc(S(N)(=O)=O)cc1 at or above 60%?
**A:** class 0

**Q:** Is inhibition of growth at 10 µM for N#Cc1c(-c2ccc(Cl)cc2)nc2c(/N=N/c3ccc(S(N)(=O)=O)cc3)c(N)nn2c1N at or above 60%?
**A:** class 0

**Q:** Is inhibition of growth at 10 µM for Nc1nn2cc(-c3ccc(Cl)cc3)[nH]c2c1/N=N/c1ccc(S(N)(=O)=O)cc1 at or above 60%?
**A:** class 0

---
**Q:** Is inhibition of growth at 10 µM for Nc1nn2cc(-c3ccccc3)[nH]c2c1/N=N/c1ccc(S(N)(=O)=O)cc1 at or above 60%?
**A:** class 1

**Q:** Is inhibition of growth at 10 µM for Nc1nn2cc(-c3ccc(Br)cc3)[nH]c2c1/N=N/c1ccc(S(N)(=O)=O)cc1 at or above 60%?
**A:** class 1

* * *

Provide the recorded inhibition of growth at 10 µM for the entries that follow.
System: HCC 2998
protocol.summary: Antitumor activity against human HCC2998 cells assessed as cell growth inhibition at 10 uM incubated for 48 hrs by sulforhodamine B assay
Assay type: functional
run.parameters: read-out: GI
Numbers only, in %.

Notebook: Cc1ccc(-c2nc3c(/N=N/c4ccc(S(N)(=O)=O)cc4)c(N)nn3c(N)c2C#N)cc1 , inhibition of growth at 10 µM read as 48

Notebook: N#Cc1c(-c2ccc(Br)cc2)nc2c(/N=N/c3ccc(S(N)(=O)=O)cc3)c(N)nn2c1N , inhibition of growth at 10 µM read as 38

Hello, I would appreciate it if you could give inhibition of growth at 10 µM for each entry below.
1. Cc1ccc(-c2cn3nc(N)c(/N=N/c4ccc(S(N)(=O)=O)cc4)c3[nH]2)cc1
2. Nc1nn2cc(-c3ccccc3)[nH]c2c1/N=N/c1ccc(S(N)(=O)=O)cc1
3. Nc1nn2cc(-c3ccc(Br)cc3)[nH]c2c1/N=N/c1ccc(S(N)(=O)=O)cc1

**A:**
1: 40; 2: 54; 3: 33

* * *

Tested on: HOP-92
protocol.summary: Antitumor activity against human HOP92 cells assessed as cell growth inhibition at 10 uM incubated for 48 hrs by sulforhodamine B assay
Assay type: functional
run.parameters: read-out: GI
Provide the recorded inhibition of growth at 10 µM for the entries that follow.
Remember to follow the number with its unit.

The recorded inhibition of growth at 10 µM with HOP-92 for Cc1ccc(-c2nc3c(/N=N/c4ccc(S(N)(=O)=O)cc4)c(N)nn3c(N)c2C#N)cc1 was 80%

The recorded inhibition of growth at 10 µM with HOP-92 for Nc1nn2cc(-c3ccc(F)cc3)[nH]c2c1/N=N/c1ccc(S(N)(=O)=O)cc1 was 25%

The recorded inhibition of growth at 10 µM with HOP-92 for N#Cc1c(-c2ccc(Br)cc2)nc2c(/N=N/c3ccc(S(N)(=O)=O)cc3)c(N)nn2c1N was 69%

Hello, I would appreciate it if you could give inhibition of growth at 10 µM for each entry below.
1. N#Cc1c(-c2ccc(F)cc2)nc2c(/N=N/c3ccc(S(N)(=O)=O)cc3)c(N)nn2c1N
2. Nc1nn2cc(-c3ccccc3)[nH]c2c1/N=N/c1ccc(S(N)(=O)=O)cc1
3. Cc1ccc(-c2cn3nc(N)c(/N=N/c4ccc(S(N)(=O)=O)cc4)c3[nH]2)cc1

**A:**
58%
74%
35%

Hello, I would appreciate it if you could give inhibition of growth at 10 µM for each entry below.
1. N#Cc1c(-c2ccccc2)nc2c(/N=N/c3ccc(S(N)(=O)=O)cc3)c(N)nn2c1N
2. N#Cc1c(-c2ccc(Cl)cc2)nc2c(/N=N/c3ccc(S(N)(=O)=O)cc3)c(N)nn2c1N
3. Nc1nn2cc(-c3ccc(Br)cc3)[nH]c2c1/N=N/c1ccc(S(N)(=O)=O)cc1

**A:**
1. 27%
2. 29%
3. 29%
